Entries and their GI50 values follow.
Tested on: U-251
Test: NCI tumour cell line growth inhibition, 48 h
The source made the active and inactive calls. Cut-off read from the data, not from the text of the source: active = GI50 up to about 1.1 µM and inactive = higher.

INSERT INTO assay_data (compound, experimental_target, observed_result) VALUES
  ('O=C(OCc1ccccc1)c1ccccc1-c1c2ccc(=O)cc-2oc2cc(OCc3ccccc3)ccc12', 'U-251', '5.32 µM (inactive)');

Please turn your attention to the following entry.
stdin: Dear colleague, I am looking for the recorded GI50 of the following compound: CC[P+](C)(Cc1ccccc1)c1ccccc1 (centres undefined)
stdout: 59 µM (inactive)

====

System: OVCAR-3
Assay: NCI tumour cell line growth inhibition, 48 h
Activity calls are given as the source filed them. Rule as the data show it: active = GI50 up to about 1.1 µM and inactive = higher.
Returns: one label drawn from active, inactive

Look over these answered cases.
INSERT INTO results (compound, classification) VALUES
  ('COc1cccc2c1-c1c(OC)cccc1SS2', 'inactive'),
  ('CC(C)/C(Cl)=N\OC(=O)Nc1cccc(Cl)c1', 'inactive'),
  ('CSc1nc2c(c(=O)[nH]1)N=C(c1ccccc1)CC(c1ccccc1)N2 (stereo unspecified)', 'inactive'),
  ('Cc1cc2c3c(ccc4[nH]cc(c43)CN2c2ccc(NS(C)(=O)=O)cc2)n1', 'inactive'),
  ('Cc1cc(=O)n(-c2c(C)cccc2Cl)c(/C=C(\O)c2ccncc2)n1', 'inactive');

stdin: Give the logged outcome of this assay for the following compound: CC(=O)OC(C)(C)/C=C/C(=O)[C@](C)(O)[C@H]1[C@H](O)C[C@@]2(C)[C@@H]3CC=C4[C@@H](C=C(O)C(=O)C4(C)C)[C@]3(C)C(=O)C[C@]12C
stdout: active

stdin: Entry to check: COc1ccc(/C=N/N=C(\N)NO)c(OC)c1OC
stdout: inactive

stdin: Now the same for Cn1c(=S)c2nc(SCCCc3ccccc3)[nH]c2n(C)c1=O
stdout: inactive
